# Target Entity: hPR3 (Homo sapiens, UniProt P24158)
# Construct: Enzymes purified from human neutrophiles (hPR3 and hNE); purchased Athens Research and Technology; host or cells: human neutrophils
# Sequence (P24158 28-248 limits assumed): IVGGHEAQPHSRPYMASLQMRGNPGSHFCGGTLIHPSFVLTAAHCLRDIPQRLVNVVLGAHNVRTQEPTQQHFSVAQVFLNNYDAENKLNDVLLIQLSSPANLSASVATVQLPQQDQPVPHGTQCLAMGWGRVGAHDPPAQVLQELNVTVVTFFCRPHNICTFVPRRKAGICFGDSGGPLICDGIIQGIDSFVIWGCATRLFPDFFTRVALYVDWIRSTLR
# Test Summary: Fluorescence-based enzymatic activity assay with hPR3 (FRET peptide Abz-VADnVADYQ-EDDnp)
# Type: biochemical
# Condition Label: mean ± SD (n = 3); read-out: IC50 hPR3
Reported Endpoint: pIC50
The value called pIC50 is obtained by taking minus log10 of the concentration in mol/L.

Exercise: Supply pIC50 measured with hPR3 (Homo sapiens, UniProt P24158) for α1-antitrypsin: endogenous serine protease inhibitor, also denoted SERPIN; purchased from Sigma-Aldrich .
Key: 7.82

* * *

# Target Entity: hPR3 (Homo sapiens, UniProt P24158)
# Construct: Enzymes purified from human neutrophiles (hPR3 and hNE); purchased Athens Research and Technology; host or cells: human neutrophils
# Test Summary: Fluorescence-based enzymatic activity assay with hPR3 (FRET peptide Abz-VADnVADYQ-EDDnp)
# Type: biochemical
# Condition Label: mean ± SD (n = 3); read-out: IC50 hPR3
Reported Endpoint: IC50 (µM)
Write it as a number; the unit µM goes unstated.

Exercise: For the compound "CC1=C(C#N)[C@@H](c2ccc(C#N)cc2S(C)(=O)=O)N(C)C(=O)N1c1cccc(C(F)(F)F)c1" , give its measured IC50 value.
Key: 0.027

Exercise: Provide measured IC50 value, entry: "CC(C)(C)C(=O)Oc1ccc(S(=O)(=O)Nc2ccccc2C(=O)NCC(=O)O)cc1"
Key: 0.033

* * *

# Target Entity: rPR3 (Homo sapiens, UniProt P24158)
# Construct: TEV cleavage site (C); 6x His-tag (C)
# Test Summary: Fluorescence-based enzymatic activity assay with rPR3 (FRET peptide Abz-VADnVADYQ-EDDnp)
# Condition Label: Cheng-Prusoff equation, literature Km 27.4 μM; read-out: Ki derived from the IC50 value
Reported Endpoint: Ki (nM)
Express the result in nM but write the number alone.

Exercise: Read the entry "CC1=C(C#N)[C@@H](c2ccc(C#N)cc2S(C)(=O)=O)N(C)C(=O)N1c1cccc(C(F)(F)F)c1" and write its reported Ki.
Key: 50
